Origin of values: paper PMC2904454

test: Plasma pharmacokinetics of docetaxel; format: in vivo, human; conditions: human, plasma, intravenous, T max, median (range), Schedule 2/1 dose level 3b, n = 8; docetaxel + sunitinib (day 1 of cycle 2)
measured_property: Tmax (min)
Answer format: numeric, min implied, no suffix.

Problem: Value lookup for Tmax; key = CC(=O)O[C@@]12CO[C@@H]1C[C@H](O)[C@@]1(C)C(=O)[C@H](O)C3=C(C)[C@@H](OC(=O)[C@H](O)[C@@H](NC(=O)OC(C)(C)C)c4ccccc4)C[C@@](O)([C@@H](OC(=O)c4ccccc4)[C@H]21)C3(C)C
Result: 48

----------
test: Plasma pharmacokinetics of docetaxel; assay type: in vivo, human; conditions: human, plasma, intravenous, C max, mean (SD), Schedule 4/2 dose level 1, n = 5; docetaxel + sunitinib (day 22 of cycle 1)
measured_property: Cmax (ng/mL)
Unit ng/mL implied. Number only.

Problem: For CC(=O)O[C@@]12CO[C@@H]1C[C@H](O)[C@@]1(C)C(=O)[C@H](O)C3=C(C)[C@@H](OC(=O)[C@H](O)[C@@H](NC(=O)OC(C)(C)C)c4ccccc4)C[C@@](O)([C@@H](OC(=O)c4ccccc4)[C@H]21)C3(C)C , what is its reported Cmax?
Result: 3100

----------
experiment: Plasma pharmacokinetics of docetaxel; format: in vivo, human; settings: human, plasma, intravenous, 60 mg/m^2, AUCinf, mean (SD), Schedule 4/2 dose level 1, n = 5; drug alone (day 1 of cycle 1)
measured_property: AUC(0-inf) (ng·h/mL)
The response must be a number in ng·h/mL with no trailing unit.

Problem: Quick check: AUC(0-inf) of CC(=O)O[C@@]12CO[C@@H]1C[C@H](O)[C@@]1(C)C(=O)[C@H](O)C3=C(C)[C@@H](OC(=O)[C@H](O)[C@@H](NC(=O)OC(C)(C)C)c4ccccc4)C[C@@](O)([C@@H](OC(=O)c4ccccc4)[C@H]21)C3(C)C ?
Result: 2550

----------
experiment: Plasma pharmacokinetics of docetaxel; format: in vivo, human; conditions: human, in vivo, AUClast, mean (SD)
measured_property: AUC(0-t)
Write your answer as a measured quantity: the number, then the unit.

Problem: # lookup: AUC(0-t) of CC(=O)O[C@@]12CO[C@@H]1C[C@H](O)[C@@]1(C)C(=O)[C@H](O)C3=C(C)[C@@H](OC(=O)[C@H](O)[C@@H](NC(=O)OC(C)(C)C)c4ccccc4)C[C@@](O)([C@@H](OC(=O)c4ccccc4)[C@H]21)C3(C)C
Result: 2290 ng·h/mL

----------
test: Plasma pharmacokinetics of docetaxel; assay type: in vivo, human; details: human, plasma, intravenous, AUCinf, mean (SD), Schedule 4/2 dose level 1, n = 5; docetaxel + sunitinib (day 22 of cycle 1)
measured_property: AUC(0-inf) (ng·h/mL)
Give your result in ng·h/mL as a bare value.

Problem: State the recorded AUC(0-inf) for this entry: CC(=O)O[C@@]12CO[C@@H]1C[C@H](O)[C@@]1(C)C(=O)[C@H](O)C3=C(C)[C@@H](OC(=O)[C@H](O)[C@@H](NC(=O)OC(C)(C)C)c4ccccc4)C[C@@](O)([C@@H](OC(=O)c4ccccc4)[C@H]21)C3(C)C
Result: 3690

----------
assay: Plasma pharmacokinetics of sunitinib, SU12662 and total drug; type: in vivo, human; settings: human, plasma, oral, AUC0–24, mean (SD), Schedule 4/2 dose level 0, n = 3; docetaxel + sunitinib (day 22)
measured_property: AUC(0-t) (ng·h/mL)
Record the value in ng·h/mL, omitting the unit from your answer.

Problem: Given CCN(CC)CCNC(=O)c1c(C)[nH]c(/C=C2\C(=O)Nc3ccc(F)cc32)c1C [sunitinib, Sunitinib malate] , state its recorded AUC(0-t).
Result: 548
